Target: T1, CD137-hisFc fusion protein (Sino Biological Cat 10041-H03H) (human, UniProt Q07011 24-186)
T1 construct: Bought; also called recombinant human CD137 (fused with human Fc and His tag); not shown: His tag and human Fc
Experiment: BLI Octet, Fab
measurement-type: koff (s⁻¹)
Numbers only here, please. The scale is s⁻¹.

binder	unit-abbreviation	koff
Fab 4134 (Fab, V domains shown, Fab from E. coli; also called VH6/VL6) VH: EVQLVESGGGLVQPGGSLRLSCAASGYSISSGHHWGWIRQAPGKGLEWVSGISGYGDTTYYADSVKGRFTISRDNSKNTLYLQLNSLRAEDTAVYYCARDPYSSGSGYFDYWGQGTLVTVSS VL: DIQLTQSPSSLSASVGDRVTITCRASQGISSALGWYQQKPGKAPKLLIYAASSLQSGVPSRFSGSGSGTDFTLTISSLQPEDFATYYCQQSYYTWTFGQGTKVEIKR	s⁻¹	0.000769
Fab 5404 (Fab, V domains shown, Fab from E. coli; also called VH34/VL34) VH: EVQLVESGGGLVQPGGSLRLSCAASGYSISSGYHWAWIRQAPGKGLEWIGEIYHSGSTYYSPSLKSRVTISRDNSKNTLYLQLNSLRAEDTAVYYCARSPYYYGVFDYWGQGTLVTVSS VL: DIQLTQSPSSLSASVGDRVTITCSASSRVGSVYWYQQKPGKAPKLLIYDASNLETGVPSRFSGSGSGTDFTLTISSLQPEDFATYYCQQYTHDPVTFGQGTKVEIKR	s⁻¹	0.0013

Problem: // query koff value for entry Fab 7120 (Fab, V domains shown, Fab from E. coli; also called VH53/VL53) VH: EVQLVESGGGLVQPGGSLRLSCAASGFSLSTSGVGVGWIRQAPGKGLEWVSYISGDGDTTYYADSVKGRFTISRDNSKNTLYLQLNSLRAEDTAVYYCAREGSTTVLGDWFAYWGQGTLVTVSS VL: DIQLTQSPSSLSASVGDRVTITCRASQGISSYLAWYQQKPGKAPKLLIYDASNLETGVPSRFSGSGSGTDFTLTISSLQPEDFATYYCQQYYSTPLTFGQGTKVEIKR
Solution: 0.00911
